conditions: in methanol, 303.15 K
READOUT_TYPE: solubility (mole fraction)
The answer should be written as a number, with no unit following it.

[in] Entry under review: OC(Cc1ccccc1Cl)(Cn1[nH]cnc1=S)C1(Cl)CC1 (stereo unspecified) . Reported solubility (mole fraction)?
[out] 0.0232

====

details: in acetonitrile, 298.15 K
READOUT_TYPE: solubility (mole fraction)
The answer should be written as a number, with no unit following it.

[in] Entry under review: OC(Cc1ccccc1Cl)(Cn1[nH]cnc1=S)C1(Cl)CC1 (stereo unspecified) . Reported solubility (mole fraction)?
[out] 0.0126

====

conditions: in sec-butanol, 288.15 K
READOUT_TYPE: solubility (mole fraction)

[in] Entry under review: OC(Cc1ccccc1Cl)(Cn1[nH]cnc1=S)C1(Cl)CC1 (stereo unspecified) . Reported solubility (mole fraction)?
[out] 0.00954

====

details: in methanol, 313.15 K
READOUT_TYPE: solubility (mole fraction)

[in] Entry under review: OC(Cc1ccccc1Cl)(Cn1[nH]cnc1=S)C1(Cl)CC1 (stereo unspecified) . Reported solubility (mole fraction)?
[out] 0.0371

====

conditions: in sec-butanol, 298.15 K
READOUT_TYPE: solubility (mole fraction)
The answer should be written as a number, with no unit following it.

[in] Entry under review: OC(Cc1ccccc1Cl)(Cn1[nH]cnc1=S)C1(Cl)CC1 (stereo unspecified) . Reported solubility (mole fraction)?
[out] 0.0152

====

details: in n-butanol, 303.15 K
READOUT_TYPE: solubility (mole fraction)
The answer should be written as a number, with no unit following it.

[in] Entry under review: OC(Cc1ccccc1Cl)(Cn1[nH]cnc1=S)C1(Cl)CC1 (stereo unspecified) . Reported solubility (mole fraction)?
[out] 0.0327
